# Subject of test: UniProt P28335
# Sequence (P28335 33-458): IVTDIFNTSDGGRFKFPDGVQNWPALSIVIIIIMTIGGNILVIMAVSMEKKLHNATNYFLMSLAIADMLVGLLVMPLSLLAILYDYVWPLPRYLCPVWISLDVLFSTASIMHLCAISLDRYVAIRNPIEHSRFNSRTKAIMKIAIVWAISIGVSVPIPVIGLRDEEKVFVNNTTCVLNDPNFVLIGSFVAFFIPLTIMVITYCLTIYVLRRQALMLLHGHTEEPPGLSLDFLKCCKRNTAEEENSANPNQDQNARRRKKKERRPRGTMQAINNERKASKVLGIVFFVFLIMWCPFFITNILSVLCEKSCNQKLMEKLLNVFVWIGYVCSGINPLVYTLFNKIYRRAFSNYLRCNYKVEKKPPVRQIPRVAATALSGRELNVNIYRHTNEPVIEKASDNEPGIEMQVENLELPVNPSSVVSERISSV
# Assay text: Human 5-HT2C functional high throughput screening assay in CHO-K1 cells (calcium flux)
# Format: cell-based
# Parameters: expressed in transfected cells; host or cells: CHO-K1 cells
# Run conditions: EC50, 5-HT2C agonist activity; CHO-K1 cells; calcium flux
Observable: EC50 (nM)

compound="O=C1NC[C@@H]2CNC[C@H]2c2ccc(OCc3cccc(F)c3)cc21 (relative stereo)" test_result=0.8
compound="Clc1ccc2c(c1)[C@@H]1CNC[C@H]1CCN2 (relative stereo)" test_result=90
compound="COc1ccc2c(c1)[C@H]1CNC[C@@H]1CC=C2 (relative stereo)" test_result=10
compound="CN1C[C@@H]2CCCc3ccccc3[C@@H]2C1 (relative stereo)" test_result=100
